# System: MS2 coat protein
# assay.info: apparent KD of MS2 coat protein; designed switch direction (-1 OFF switch, 1 ON switch): 1; higher = weaker reporter binding
# condition.parameters: input ligand: microRNA oligo, concentration not stated
endpoint.name: apparent KD of MS2 coat protein (nM)

INSERT INTO results (input_sequence, endpoint_name, readout_value) VALUES
  ('CUGACAUGUCAAGGAUAUCACGUCGAUUAGACGUGAGAAGGUGAUCUACACAUGAGGAUCACCCAUGUGUUACGUGGGAGUCAG [Brourd''s SSNG1/1-A2 mod 19] (Eterna round: R96, puzzle: Same State NG 1)', 'apparent KD of MS2 coat protein', 113),
  ('CCAAUGUACAAUUUAGAUCUACAUGAGGAUCACCCAUGUACAGAGGAUAUCAGCUCGAAUAGAGCUGAGAAGGCUGAAUUAAUU [SSNG3/3-A1] (Eterna round: R96, puzzle: Same State NG 3)', 'apparent KD of MS2 coat protein', 153),
  ('GGCCUGUGUCAAGGAUAUGCUACCGUUUCGGUAGCAGAAGGUGAUCACAUGAGGAUCACCCAUGUUUACGCGAACACGCGCGCC (Eterna round: R96, puzzle: Same State NG 1)', 'apparent KD of MS2 coat protein', 70.6),
  ('CCCGUCUACAGAAAGGUAGAUGGGAAUGUACAUGAGGAUCACCCAUGUUAAUAUGAGUUUGUUGAUAAUUAUGAAUU [Modxample 50 - Jieux - Sensor for bsa-mir-208a] (Eterna round: R96, puzzle: Sensor for hsa-mir-208a)', 'apparent KD of MS2 coat protein', 18.9);

###

Listing: apparent KD of MS2 coat protein of selected sequences
# System: MS2 coat protein
# assay.info: apparent KD of MS2 coat protein; designed switch direction (-1 OFF switch, 1 ON switch): 1; higher = weaker reporter binding
# condition.parameters: input ligand: none
endpoint.name: apparent KD of MS2 coat protein (nM)

INSERT INTO measurements (input_sequence, readout_value) VALUES
  ('GCCGGCUGAUGAGGAUAUGGCACCUUAUUGGUGCCAGAAGGCAUGUCAAUUGACAUGAGGAUCACCCAUGUAUUAUAGUUGGCG [salish99_SSNG1_r04_604] (Eterna round: R96, puzzle: Same State NG 1)', 326),
  ('AAUAUUUAUGCAGGAUAUGAUUAACAUGAGGAUCACCCAUGUGGUGUUGUGAGUAAGGAGAGUGAUCAGAAGGGCAUUUUUUUU [JMF''s solution 73] (Eterna round: R96, puzzle: Same State NG 2)', 463),
  ('UAAAAACAUGAGGAUCACCCAUGUGAAAAUAUGGGAGGAUAUACAAAGACGAGAGUCAAAGUAGAAGGCCUAAAAU [Mat - Same State 1 - Eli mod - D88] (Eterna round: R96, puzzle: Same State 1)', 86.6),
  ('UGAGCCGGCACUGAGGAUAUUCAUAAUAAAACAUGAGGAUCACCCAUGUAGGCCAGAAGGCCUUGGGAGAAGGCAGGUCGGCUCA [Mat - Same State 2 - Mod of UCT - D71] (Eterna round: R96, puzzle: Same State 2)', 191);

###

# System: MS2 coat protein
# assay.info: apparent KD of MS2 coat protein; designed switch direction (-1 OFF switch, 1 ON switch): 1; higher = weaker reporter binding
# condition.parameters: Eterna round: R95; input ligand: none
Listing: apparent KD of MS2 coat protein of selected sequences
endpoint.name: apparent KD of MS2 coat protein (µM)

INSERT INTO measurements (input_sequence, result_units, readout_value) VALUES
  ('GUUAAACAUGAGGAUCACCCAUGUAAUCAUAUGGGAGGAUAUGGGAAUUAAUUAAUUAAACCAGAAGGCCUAAUUG [Mat - Same State 1 - D83] (puzzle: Same State 1)', 'µM', 0.0923),
  ('AUAAAACAUGAGGAUCACCCAUGUCAACAAAGUCGAGGAUAUGGGCAAAUAAAAUAAGUACCAGAAGGCGAAUAAU [salish99_ss1_r3_017] (puzzle: Same State 1)', 'µM', 0.108),
  ('GGCUAUCGGCGUACCGAUAGCUGGUAUGUACAUGAGGAUCACCCAUGUCAUGUACAGGCUUGUUGCUCGUCUUAUUG [JL-shm-2.38 JL mod] (puzzle: Sensor for hsa-mir-208a)', 'µM', 0.165);
